# TARGET OF ASSAY: T1, human DLL4 protein (human, UniProt Q9NR61 27-524, limits assumed)
# T1 construct: bought protein; construct and tag not described; also called hDLL4
# T1 sequence (Q9NR61 27-524 limits assumed): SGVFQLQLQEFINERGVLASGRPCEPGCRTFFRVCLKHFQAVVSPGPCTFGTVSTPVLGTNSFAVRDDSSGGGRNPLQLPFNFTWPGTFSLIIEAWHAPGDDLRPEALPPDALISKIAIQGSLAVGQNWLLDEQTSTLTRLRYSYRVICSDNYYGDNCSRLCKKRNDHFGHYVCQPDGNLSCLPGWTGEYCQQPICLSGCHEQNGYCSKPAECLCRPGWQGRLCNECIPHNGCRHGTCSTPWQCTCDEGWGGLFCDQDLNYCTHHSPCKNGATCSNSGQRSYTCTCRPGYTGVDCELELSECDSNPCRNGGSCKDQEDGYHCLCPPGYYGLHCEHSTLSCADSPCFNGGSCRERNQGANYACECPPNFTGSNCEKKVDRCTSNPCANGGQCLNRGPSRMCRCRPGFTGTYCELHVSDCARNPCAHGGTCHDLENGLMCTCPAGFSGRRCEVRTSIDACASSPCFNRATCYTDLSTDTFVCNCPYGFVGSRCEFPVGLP
# MEASUREMENT DESCRIPTION: ELISA, maximum over 0.1-100 nM
Consider the following binders; for each one, report its Emax of OD450 nm binding value.
Respond with the bare value in OD450.

Ask: I would be grateful if you could share the reported Emax of OD450 nm binding value for mab007 scFv-hFc (Fc fusion, human-murine chimeric scFv-hFc, VL-linker-VH-human IgG1 Fc; not shown: linker; Fc fragment of human IgG1) scFv (part 1 of 2): DVQITQSPSYLAASPGETITINCRASTSISKYLAWYQERPGKTNKLLIYSGSTLQSGIPSRFRGSGSGTDFTLTISSLEPEDFAMYYCQQHHVYPYTFGGGTKLEIK scFv (part 2 of 2): QVQLQQPGAELVRPGTSVKLSCKASGYTFTSYWMHWVKQRPGQGLEWIGVIDPSDSLANYNQEFKGKATLTVDTSSSTAYMQLSSLTSEDSAVYYCARDSTVVAPMDYWGQGTSVTVSS .
Reply: 0.06

Ask: I would be grateful if you could share the reported Emax of OD450 nm binding value for mab006 scFv-hFc (Fc fusion, human-murine chimeric scFv-hFc, VL-linker-VH-human IgG1 Fc; not shown: linker; Fc fragment of human IgG1) scFv (part 1 of 2): DVQITQSPSYLAASPGETITINCRATKSISKYLAWYQEKPGKTNKLLIFSGSTLQSGIPSRFRGSGSGTDFTLTISSLEPEDFAMYYCQQHHEYPYTFGGGTKLEIK scFv (part 2 of 2): QVQLQQPGAELVRPGTSVKLSCKASGYTFTSYWMHWVRQRPGQGLEWIGVIDPSDSLANYNQEFKGKATLTVDTSSSTAYMQLSSLTSEDSAVYYCARDSTVVAPMDYWGQGTSVTVSS .
Reply: 0.07

Ask: I would be grateful if you could share the reported Emax of OD450 nm binding value for mab012 scFv-hFc (Fc fusion, human-murine chimeric scFv-hFc, VL-linker-VH-human IgG1 Fc; not shown: linker; Fc fragment of human IgG1) scFv (part 1 of 2): DVLMTQTPLSLPVSLGDQASISCRSSQSIVHSDGNTYLEWYLQKPGQSPKLLIYKVSNRFSGVPDRFSGSGSGTDFTLKISRVEAEDLGFYYCFQGSHVPFTFGSGTKLEIK scFv (part 2 of 2): QVQLQQSGPELVKPGASVKISCKASGYTFTDYYIHWVKQRPGQGLEWIGWTLPGSGSPYYNEKFKGKATLTVDKSSSTAYMLLSSLTSEDSAVYFCARWHYYYGSSYHFDYWGQGTTLTVSS .
Reply: 0.08
